src = the supplement of paper PMC10567573

B1: MMP1 (parent)
chain: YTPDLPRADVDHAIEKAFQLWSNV

- Variants of: B1
- test: protein stability index of a GFP-peptide fusion (GPS, HEK-293T) (PSI 1-6); higher = more stable;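 further: lentivirally expressed fusions sorted by FACS into six bins by GFP to DsRed ratio, PSI derived from sequencing read proportions per bin multiplied by bin number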
- condition info: c terminus: a fixed tail appended
quantity kind: protein stability index
Numbers only.

# annotated cases, reported protein stability index shown
>>> value("Q19Y")
1.87
>>> value("F18H")
3.17
>>> value("T2N")
2.18
>>> value("N23F")
2.29
>>> value("D11V")
1.59

Field: protein stability index. Fill in for each record below.
1. V10F
2. D9L

1. 1.79
2. 1.3
